FYI, the data here is from a melting point compilation (Tetko et al.).

quantity-measured: melting point

Consider the following illustrative entries.
N#Cc1cnn(-c2ccncc2)c1N	273 to 275 °C
CCc1cc(O)ncn1	135 to 137 °C
CCC(=O)N1CCC(C(=O)O)C1 (centres undefined)	118 to 120 °C
Nc1ccc2c(c1)NC(=O)CO2	215 to 217 °C
O=C(O)c1ccc(Cn2cccc2)cc1	161 to 163 °C

Problem: Returns the measured melting point for the input compound. Input: O=C(O)C1(OCc2ccccc2)CCOCC1
Result: 69 to 71 °C

Problem: Looking for the measured melting point of CCOC(=O)c1cnn(-c2ccc(C(F)(F)F)cn2)c1C , can you help?
Result: 88 to 90 °C

----------
Reported values of melting point for individual entries

Example entries and their recorded answers appear below.
O=C(O)C1CCN(c2ccc(S(=O)(=O)N3CCOCC3)cc2[N+](=O)[O-])CC1	225 to 227 °C
CN1CCN(CCc2ccc(N)cc2)CC1	64 to 66 °C
CCCOc1ccc(C(N)=S)cc1	142 to 144 °C
Cc1[nH]c2ccnn2c(=O)c1CC(=O)O	293 to 295 °C
COCc1nnc(NN)s1	109 to 111 °C
FC(F)(F)c1ccc2c(c1)NCCO2	94 to 96 °C
COc1ccc(C(=O)CC(C)=O)cc1	52 to 54 °C
Nc1ccc(C(=O)NC2CCOCC2)cc1	217 to 219 °C
CC(C)COc1cccc(C(=O)O)c1	85 to 89 °C
CC(=O)Nc1cc2c(cc1C)OCO2	164 to 166 °C

Problem: I'd like to know its melting point. The compound in question is O=C(O)c1cccc(S(=O)(=O)CC(F)F)c1
Result: 170 to 172 °C

----------
quantity-measured: melting point

N#Cc1cc2ccccc2[nH]c1=O	327 to 329 °C

Problem: Look up melting point for this molecule: O=C(O)c1cn(-c2ccc(Br)cc2C(F)(F)F)nn1
Result: 139 to 141 °C

Problem: Requested read-out: melting point. Entry: CN1CCC(CC(=O)O)CC1
Result: 150 to 152 °C

Problem: Returns the measured melting point for the input molecule. Input: COCCN(CC(=O)O)C(=O)OC(C)(C)C
Result: 76 to 78 °C

Problem: Fill in the blank: the reported melting point of O=Cc1cc[nH]c1 is ____.
Result: 59 to 61 °C

Problem: Can you look up the measured melting point of Cc1cc(C=O)c(C)n1C(C)C for me?
Result: 45 to 47 °C

Problem: // returns reported melting point for input O=C(CCCl)Nc1ccccc1[N+](=O)[O-]
Result: 86 to 88 °C

Problem: If you can, please state the reported melting point value of CCCCS(=O)(=O)Nc1ccc(F)c(N)c1 .
Result: 71 to 73 °C

Problem: Quick one: melting point of CS(=O)(=O)NCCN=C=S ?
Result: 163 to 165 °C

Problem: Bench note: what melting point did N#CCc1ccc(OCc2ccccc2N)cc1 show?
Result: 108 to 110 °C

Problem: Recorded melting point of CC(C)N(C)S(=O)(=O)c1ccc(N)cc1 , please.
Result: 119 to 121 °C

Problem: Give its melting point value. Item: COC(=O)C(=O)CC(=O)c1ccc(C)cc1C
Result: 63 to 65 °C

Problem: GET /values?readout=melting point&item= N#Cc1cnn(-c2ccccc2)c1N
Result: 137 to 139 °C

Problem: Recorded melting point for Cc1cc2ccc(Cl)cc2nc1NN , please?
Result: 169 to 171 °C
